- assay.comment: method code SF-HPLC, from DOI: 10.1111/j.2042-7158.1987.tb06262.x, PMID: 2884287
- condition.info: pH 3.0
outcome.measure: logD

Cn1c(=O)[nH]c(=O)c2c1[nH]c(=O)n2C :: -1.33

A. Cn1c(=O)[nH]c2nc[nH]c2c1=O
B. Cn1c(=O)c2[nH]c(=O)[nH]c2n(C)c1=O
C. Cn1c(=O)[nH]c(=O)c2[nH]c(=O)[nH]c21
(Q) Order these by logD, descending, and give the full ranking. # output: labels, in the requested order
(A) A, B, C
(A: -0.27, B: -0.52, C: -1.08)

1. Cn1c(=O)c2c([nH]c(=O)n2C)n(C)c1=O
2. CN(C=O)c1c(N)[nH]c(=O)n(C)c1=O
(Q) Endpoint returns the identifier whose logD is numerically larger, either 1 or 2 . To answer, give the label that identifies your chosen option.
(A) 1
